# Target Of Assay: Fes (UniProt P07332)
# Sequence (P07332 whole entry, looked up): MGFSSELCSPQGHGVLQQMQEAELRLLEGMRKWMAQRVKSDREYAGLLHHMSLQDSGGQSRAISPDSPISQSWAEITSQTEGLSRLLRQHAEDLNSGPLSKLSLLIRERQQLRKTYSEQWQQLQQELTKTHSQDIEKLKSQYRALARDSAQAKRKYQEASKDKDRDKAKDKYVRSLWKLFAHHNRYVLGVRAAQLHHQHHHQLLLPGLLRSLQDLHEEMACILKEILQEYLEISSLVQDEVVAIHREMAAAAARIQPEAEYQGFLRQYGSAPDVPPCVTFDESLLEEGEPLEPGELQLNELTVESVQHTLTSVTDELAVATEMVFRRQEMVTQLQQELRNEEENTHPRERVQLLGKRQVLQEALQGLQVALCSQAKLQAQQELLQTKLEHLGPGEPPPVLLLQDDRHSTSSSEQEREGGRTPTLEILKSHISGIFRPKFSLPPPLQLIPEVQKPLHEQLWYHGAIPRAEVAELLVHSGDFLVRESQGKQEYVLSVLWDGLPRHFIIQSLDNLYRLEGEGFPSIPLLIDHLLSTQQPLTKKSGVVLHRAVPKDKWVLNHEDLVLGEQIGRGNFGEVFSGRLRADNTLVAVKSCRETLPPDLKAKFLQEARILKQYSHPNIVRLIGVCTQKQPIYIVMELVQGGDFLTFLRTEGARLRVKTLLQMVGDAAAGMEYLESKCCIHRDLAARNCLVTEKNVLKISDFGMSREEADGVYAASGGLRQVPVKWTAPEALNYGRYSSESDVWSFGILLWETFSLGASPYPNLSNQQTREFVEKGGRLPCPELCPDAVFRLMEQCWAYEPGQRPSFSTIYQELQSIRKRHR
# Test Details: phosphorylation enrichment, bacterial display (enrichment ratio); higher = better substrate or ligand; peptides without Tyr show the background;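 further: 11-residue human phosphosite peptides and single-mutation variants displayed on the E. coli surface, counted by deep sequencing, each peptide's frequency after selection divided by its frequency in the unselected input library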;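 further: frequency after pTyr selection over input frequency; kinase dosed for 20-30% of maximal phosphorylation in three min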
Where phosphorylation enrichment equals or exceeds 1, the correct label is True; where it does not, the label is False.

Sample answers from the record:
Ordered Residues: SQSPHYFRSGQ [GPATCH8_Y1038_R1043Q]
Category: False

Ordered Residues: DISEPYEVYRI [IRF8_Y107_K108E]
Category: True

Ordered Residues: DENWFYTQAAS [RPS19_Y54_R56Q]
Category: True

Ordered Residues: YDGKDYIALKE [HLA-A_Y147_N151K]
Category: False

Ordered Residues: TDKLFYIYTPG [SLC27A4_Y243_S247P]
Category: True

Assess whether reported phosphorylation enrichment for YAANYYKLLGN [ROR2_Y646_D644N] sits at 1 or higher.
False

Could you please find out whether TTGGFYSYGGG [KRT24_Y120_A115T] has phosphorylation enrichment that meets 1 or exceeds it?
True

Dear colleague, could you confirm whether GEPLSYTRFSL [TFRC_Y20] has phosphorylation enrichment at or above 1?
False

I'd appreciate it if you could say whether FDDIAHIRKTL [PIK3CA_Y1021_Y1021H] has phosphorylation enrichment at least equal to 1.
False

Record YLRTGYSIPYG [TGM1_Y370_V372I] ; criterion: phosphorylation enrichment no lower than 1. Met?
False

# check: phosphorylation enrichment of ADCRYYAFPQM [GAMT_Y223] is greater than or equal to 1
True

Assess whether reported phosphorylation enrichment for NSFKFYMSDDI [ATRX_Y204_C200S_YF] sits at 1 or higher.
True
